B1: library; numbered along this chain (parent)
chain: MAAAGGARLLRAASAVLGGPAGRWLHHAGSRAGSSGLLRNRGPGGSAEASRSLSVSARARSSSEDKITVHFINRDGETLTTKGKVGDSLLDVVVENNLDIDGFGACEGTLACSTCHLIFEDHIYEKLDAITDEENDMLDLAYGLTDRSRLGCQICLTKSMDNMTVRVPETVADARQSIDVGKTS

Variants of: B1
assay_method_text: scaled log2 fold change in cell abundance, elesclomol vs control (0 = silent mean, 1 = nonsense mean) (scaled log2 ratio); higher = higher viability under elesclomol (loss of FDX1 cuproptosis function);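 note: variant abundance is its share of total variant reads in each endpoint sample, from next-generation sequencing of the integrated ORF PCR-amplified out of genomic DNA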
particulars: with ABC1 FDX1 KO; elesclomol 5 nM; glucose 10 mM; 14 days
Definition: the class of an entry is the range in group A = under -0.03, group B = from -0.03 up to 0.2, group C = 0.2 and over that contains its scaled log2 fold change.

INSERT INTO measurements (mutant_label, label_class) VALUES
  ('V16F', 'group A'),
  ('A7D', 'group B'),
  ('Y142E', 'group A'),
  ('S61Y', 'group C'),
  ('R11E', 'group B'),
  ('G104W', 'group C'),
  ('N40E', 'group B'),
  ('G143R', 'group C'),
  ('D132Q', 'group B'),
  ('N135T', 'group A'),
  ('L98G', 'group C');

Values were extracted from the supplement of paper PMC12855868.
